- tgt: T1, human IL-12 (human, UniProt P29460 23-328; P29459 23-219)
- T1 construct: Recombinant (Peprotech); FLAG-tagged IL-12 in the flow cytometry assays, biotinylated in the IL-12Rβ2 assay; also called hIL-12
- T1 sequence 1: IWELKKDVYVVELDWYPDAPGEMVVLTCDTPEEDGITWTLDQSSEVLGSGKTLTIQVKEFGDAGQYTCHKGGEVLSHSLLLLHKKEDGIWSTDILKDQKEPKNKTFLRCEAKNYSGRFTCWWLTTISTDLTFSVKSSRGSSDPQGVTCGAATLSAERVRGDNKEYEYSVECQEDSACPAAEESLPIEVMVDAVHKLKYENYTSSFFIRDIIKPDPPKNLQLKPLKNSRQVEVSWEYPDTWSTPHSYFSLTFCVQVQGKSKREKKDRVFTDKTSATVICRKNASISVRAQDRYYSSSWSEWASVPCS
- T1 sequence 2: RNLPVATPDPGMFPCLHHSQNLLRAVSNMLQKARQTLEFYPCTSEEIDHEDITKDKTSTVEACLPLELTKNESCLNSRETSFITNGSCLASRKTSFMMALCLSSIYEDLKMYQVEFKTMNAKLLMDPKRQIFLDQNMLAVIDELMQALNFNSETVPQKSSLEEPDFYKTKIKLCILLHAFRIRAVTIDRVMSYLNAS
- procedure-summary: ELISA, coated IL-12
measured-parameter: binding result

Examples with their reported binding result follow.
Antibody 115 (antibody, human IgG1, kappa, V domains shown) VH: EVQLVQSGAEVKKPGATVKISCKASGYTFSDYYLHWVRQAPEKGLEWMGWIDPENGDTEYAPKFQGRVTITTDTSTDTGYLELSSLRSEDTAVYYCAANKELRYFDVWGQGTLVTVSS VL: DIQMTQSPSSVSASVGDRVTITCRASQSISINLHWYQQKPGKAPKLLIYFASQSISGVPSRFSGSGSGTDFSLTINSLQPEDFARYYCQQSNSFPLTFGGGTKVEIKR    binds
Antibody 93 (antibody, human IgG1, kappa, V domains shown) VH: EVQLVQSGAEVKKPGATVKISCKASGYTFSDYYLHWVRQAPEKGLEWMGWIDPENGDTEYAPKFQGRVTITADTSTDTGYLELSSLRSEDTAVYYCNANKELRYFDVWGQGTLVTVSS VL: DIQMTQSPSSVSASVGDRVTITCRASQSISINLHWYQQKPGKAPKLLIYFASQSISGVPSRFSGSGSGTDFSLTINSLQPEDFARYYCQQSNSFPLTFGGGTKVEIKR    binds
Antibody 105 (antibody, human IgG1, kappa, V domains shown) VH: EVQLVQSGAEVKKPGATVKISCTASGYTFSDYYLHWVRQAPEKGLEWMGWIDPENGDTEYAPKFQGRVTITADTSTDTGYLELSSLRSEDTAVYYCAANKELRYFDVWGQGTLVTVSS VL: DIQMTQSPSSVSASVGDRVTITCRASQSISINLHWYQQKPGKAPKLLIYFASQSISGVPSRFSGSGSGTDFSLTINSLQPEDFARYYCQQSNSFPLTFGGGTKVEIKR    binds
Antibody 108 (antibody, human IgG1, kappa, V domains shown) VH: EVQLVQSGAEVKKPGATVKISCKASGYTISDYYLHWVRQAPEKGLEWMGWIDPENGDTEYAPKFQGRVTITADTSTDTGYLELSSLRSEDTAVYYCAANKELRYFDVWGQGTLVTVSS VL: DIQMTQSPSSVSASVGDRVTITCRASQSISINLHWYQQKPGKAPKLLIYFASQSISGVPSRFSGSGSGTDFSLTINSLQPEDFARYYCQQSNSFPLTFGGGTKVEIKR    binds
Antibody 106 (antibody, human IgG1, kappa, V domains shown) VH: EVQLVQSGAEVKKPGATVKISCKASGFTFSDYYLHWVRQAPEKGLEWMGWIDPENGDTEYAPKFQGRVTITADTSTDTGYLELSSLRSEDTAVYYCAANKELRYFDVWGQGTLVTVSS VL: DIQMTQSPSSVSASVGDRVTITCRASQSISINLHWYQQKPGKAPKLLIYFASQSISGVPSRFSGSGSGTDFSLTINSLQPEDFARYYCQQSNSFPLTFGGGTKVEIKR    binds

Record Antibody 123 (antibody, human IgG1, kappa, V domains shown) VH: EVQLVQSGAEVKKPGATVKISCKASGYTFSDYYLHWVRQAPEKGLEWMGWIDPENGDTEYAPKFQGRVTITADTSTDTGYLELSSLRSDDTAVYYCAANKELRYFDVWGQGTLVTVSS VL: DIQMTQSPSSVSASVGDRVTITCRASQSISINLHWYQQKPGKAPKLLIYFASQSISGVPSRFSGSGSGTDFSLTINSLQPEDFARYYCQQSNSFPLTFGGGTKVEIKR , field binding result: binds

For this binder ( Antibody 109 (antibody, human IgG1, kappa, V domains shown) VH: EVQLVQSGAEVKKPGATVKISCKASGYTFKDYYLHWVRQAPEKGLEWMGWIDPENGDTEYAPKFQGRVTITADTSTDTGYLELSSLRSEDTAVYYCAANKELRYFDVWGQGTLVTVSS VL: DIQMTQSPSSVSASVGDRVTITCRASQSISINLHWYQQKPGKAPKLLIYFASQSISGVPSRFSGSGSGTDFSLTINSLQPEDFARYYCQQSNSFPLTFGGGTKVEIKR ), measured binding result is binds

For Antibody 120 (antibody, human IgG1, kappa, V domains shown) VH: EVQLVQSGAEVKKPGATVKISCKASGYTFSDYYLHWVRQAPEKGLEWMGWIDPENGDTEYAPKFQGRVTITADTSTDTGYLQLSSLRSEDTAVYYCAANKELRYFDVWGQGTLVTVSS VL: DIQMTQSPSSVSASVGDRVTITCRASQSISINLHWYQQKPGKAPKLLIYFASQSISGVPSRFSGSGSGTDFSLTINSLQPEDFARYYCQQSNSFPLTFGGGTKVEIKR the binder record lists binding result as binds

Quick note, binding result for Antibody 122 (antibody, human IgG1, kappa, V domains shown) VH: EVQLVQSGAEVKKPGATVKISCKASGYTFSDYYLHWVRQAPEKGLEWMGWIDPENGDTEYAPKFQGRVTITADTSTDTGYLELSSLTSEDTAVYYCAANKELRYFDVWGQGTLVTVSS VL: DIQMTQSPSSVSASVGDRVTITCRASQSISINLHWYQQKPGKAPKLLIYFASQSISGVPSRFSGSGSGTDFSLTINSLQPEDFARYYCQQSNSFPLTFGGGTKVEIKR landed at binds

// binding result value for Antibody 118 (antibody, human IgG1, kappa, V domains shown) VH: EVQLVQSGAEVKKPGATVKISCKASGYTFSDYYLHWVRQAPEKGLEWMGWIDPENGDTEYAPKFQGRVTITADTSTDTAYLELSSLRSEDTAVYYCAANKELRYFDVWGQGTLVTVSS VL: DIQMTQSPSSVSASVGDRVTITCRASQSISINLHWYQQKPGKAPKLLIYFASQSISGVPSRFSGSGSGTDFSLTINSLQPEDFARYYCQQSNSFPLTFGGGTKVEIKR : binds
